Test system: U251 CNS
Experimental Protocol: NCI tumour cell line growth inhibition, 48 h
Measured Property: TGI (µM)
Express it in µM; write the number only.

**Query** // TGI lookup, key: O=c1c2cc3c(cc2c2cccc4c2n1CCC4)OCO3
**Result** 73.5

**Query** // TGI lookup, key: CN(CCNC(=O)c1c[nH]c2c1Cc1ccccc1-2)CCNC(=O)c1c[nH]c2c1Cc1ccccc1-2
**Result** 34.7

**Query** // TGI lookup, key: COc1cc(C)c2sc3ccccc3c(=O)c2c1NCCN(C)C
**Result** 14.1

**Query** // TGI lookup, key: Clc1ccc(C[P+](c2ccccc2)(c2ccccc2)c2ccccc2)cc1Cl
**Result** 10.6

**Query** // TGI lookup, key: O=C(CCCN1CCC(C(O)c2ccc(F)cc2)CC1)c1ccc(F)cc1 (stereo not drawn)
**Result** 106

Others:
**Query** // TGI lookup, key: O=C(/C(=C\I)c1ccccc1)c1ccccc1
**Result** 9.69

**Query** // TGI lookup, key: COCCOCCOCc1n(Cc2ccc3ccccc3n2)c2ccccc2[n+]1Cc1ccc2ccccc2n1
**Result** 12.9

**Query** // TGI lookup, key: O=C1CC/C(=C/COc2cc(=O)oc3ccccc23)O1
**Result** 23.4

**Query** // TGI lookup, key: Cc1c2c(c(C)c3c1[nH]c1ccccc13)CN(C)CC2
**Result** 26

**Query** // TGI lookup, key: CC1OC2OC3C(OCC(O)C3O)OC(=O)[C@]34CCC(C)(C)CC3C3=CCC5[C@@]6(C)C[C@H](O)[C@H](OC7OC(CO)C(O)C(O)C7OC7OCC(OC(=O)CC(C)(O)CC(=O)OC1C(O)C2O)C(O)C7O)[C@@](C)(CO)C6CC[C@@]5(C)[C@]3(C)CC4 (stereo partly drawn)
**Result** 12.6

====

Test system: ACHN renal
Experimental Protocol: NCI tumour cell line growth inhibition, 48 h
The reader will find reported TGI values listed item by item below.

Below are worked cases with known answers.
**Query** // TGI lookup, key: O=C(NCCCl)SCCO
**Result** > 100 µM

**Query** // TGI lookup, key: C=C1C(=O)O[C@H]2C[C@@H]1[C@@H](O)[C@H](O)[C@@H](C)CCCC(C)=CCC[C@@]2(C)O
**Result** 27.8 µM

**Query** // TGI lookup, key: CCCCOC1OC(COC(=O)C(C)C)C(OC(=O)C(C)C)C(O)C1OC1OC(C)C(OC(=O)CCC)C(OC(=O)C(C)C)C1O (stereo not given)
**Result** 28.1 µM

**Query** // TGI lookup, key: C/C(=N\O)c1cccc[n+]1Cc1ccccc1
**Result** > 100 µM

**Query** // TGI lookup, key: [N-]=[N+]=CC(=O)OCCCCl
**Result** > 100 µM

**Query** // TGI lookup, key: Cc1cccc(CC(Cc2ccc(C)cc2C(=O)O)C(=O)O)c1 (stereo not given)
**Result** > 100 µM

**Query** // TGI lookup, key: CC([O-])=C1C(=O)c2ccccc2C1=O.CC([O-])=C1C(=O)c2ccccc2C1=O.CC[O-].CC[O-].[Ti+4]
**Result** > 100 µM

**Query** // TGI lookup, key: O=C1OC(=O)C2C3C=CC(C12)C1C2C=CC2C31 (stereo not given)
**Result** > 100 µM

**Query** // TGI lookup, key: CCSC[C@@H]1C[C@](O)(c2ccc(F)cc2)[C@@H](c2ccc(F)cc2)O1
**Result** 32.6 µM

# next compound below
**Query** // TGI lookup, key: CCOc1ccc2c(c1)c(CC(=O)O)cn2C
**Result** > 100 µM
